Measured TGI, listed per entry for reference.
- Test system: NCI-H23 lung
- ASSAY_NOTES: NCI tumour cell line growth inhibition, 48 h

{"columns": ["MOLECULE", "TGI"],
 "data": [
  ["O=c1[nH]c(=S)[nH]c2c1C(c1ccc([N+](=O)[O-])cc1)c1c([nH]c(=S)[nH]c1=O)O2", "> 100 µM"],
  ["CC(=O)Nn1c(=S)[nH]c2ccccc21", "> 100 µM"],
  ["CC(C)c1cc2c(cc1S(=O)(=O)O)[C@@]1(C)CCC[C@@](C)(C(=O)O)C1CC2 (some centres not stated)", "> 100 µM"],
  ["c1ccc2c(c1)Cn1c-2nc2ccccc21", "> 100 µM"],
  ["O=C(NCc1ccccc1)c1n[nH][nH]c1=O", "> 100 µM"],
  ["O=C1CN(c2cccc(Cl)c2)C(=O)CN1CCN1CC(=O)N(c2cccc(Cl)c2)CC1=O", "71.1 µM"],
  ["Nc1c(S(=O)(=O)O)cc2cc(S(=O)(=O)O)ccc2c1N=Nc1ccc(-c2ccc(N=Nc3c(N)c(S(=O)(=O)O)cc4cc(S(=O)(=O)O)ccc34)c(S(=O)(=O)O)c2)cc1", "> 100 µM"],
  ["CC(C)(C)c1cc2c(O)c3cccc4c(=O)c5cccc6c5-c(c34)c2c(c1)c6=O", "> 100 µM"],
  ["COC(=O)c1c(C)nc2c1cc(O)c1[nH]c(C)c(C)nc12", "> 100 µM"],
  ["Oc1ccccc1CNCc1nc2ccccc2[nH]1", "> 100 µM"],
  ["C=C1C(=O)O[C@H]2[C@H]1CC/C(COC(=O)NCc1ccc(Cn3c(=O)sn(-c4ccc(OC)cc4)c3=O)cc1)=C\\CC[C@@]1(C)O[C@@H]21", "9.9 µM"],
  ["COc1ccc(CN2C(=O)/C(=C\\c3cc(OC)c(OC)c(OC)c3)c3ccccc32)cc1", "6.43 µM"],
  ["O=C(O)c1nc2nc(Cl)c(Cl)nc2[nH]1", "> 100 µM"],
  ["NC(N)=Nc1ccc(CC(N)NCC(=O)O)cc1 (configuration not stated)", "> 25 µM"],
  ["CC(C)[C@@H]1C=C2CC[C@H]3[C@](C)(CN)CCC[C@]3(C)[C@H]2CC1", "4.09 µM"],
  ["CCCCCCCCCCCCC(O)c1ccc(C#CCCCCCCCCCO)o1 (configuration not stated)", "48.8 µM"],
  ["Nc1c(C(=O)Nc2cccc(C(F)(F)F)c2)sc2nc3c(cc12)CCCCC3", "10.9 µM"],
  ["C#CCn1c(=O)c2ccccc2n(CC#C)c1=O", "> 10 µM"],
  ["Cc1ccc(Oc2ccc(C)cc2N)cc1", "> 100 µM"],
  ["c1ccc(Sc2ncnc3ccccc23)cc1", "25.7 µM"],
  ["COc1ccc(N=NC(=Nc2ccccc2)c2ccc(N(CCC#N)CCC#N)cc2)cc1", "> 100 µM"],
  ["Cc1csc(-c2nnc(Nc3ccc(Oc4ncccc4-c4ccnc(N)n4)cc3)c3ccccc23)c1", "> 100 µM"]
]}

----------
- Tested on: SNB-19 CNS
- ASSAY_NOTES: NCI tumour cell line growth inhibition, 48 h; in the data active = GI50 below about 0.43 µM; inactive = the rest
Classes used: active, inactive

{"columns": ["MOLECULE", "CATEGORY"],
 "data": [
  ["C[C@]12CCC3c4ccc(O)cc4CCC3C1CC[C@@]2(O)CNC(=O)/C=C/c1ccc(O)c(O)c1 (stereo partly drawn)", "inactive"],
  ["CCC(=C/[C@H](C)C/C=C/C(C)=C/[C@@H](C)C(=O)[C@@H](C)[C@H](O)[C@@H](C)CC)/C=C/[C@H]1OC(=O)C=C[C@@H]1C", "active"],
  ["COc1ccc2nc(NC(=O)CSc3nnc4n3S(=O)(=O)c3ccccc3N4c3ccccc3)sc2c1", "inactive"],
  ["Cc1ccc(-n2c3nc(=O)[nH]c(=O)c-3cc3cc([N+](=O)[O-])ccc32)cc1", "inactive"],
  ["Cc1nnc(NC(=O)c2nc(S(=O)(=O)Cc3ccc(F)cc3)ncc2Cl)s1", "inactive"],
  ["COCCOc1ccc(-c2nc3ccc(-c4nc5ccc(N6CCN(C)CC6)cc5[nH]4)cc3[nH]2)cc1", "inactive"],
  ["COc1ccc(-c2cn[nH]c2-c2cc(OC)c(OC)c(OC)c2)cc1", "active"],
  ["CN(C)c1cc(NN=C(c2ccc(O)cc2)c2ccc(O)cc2)c([N+](=O)[O-])cc1[N+](=O)[O-]", "inactive"]
]}
